TARGET UNDER TEST: chicken gizzard smooth muscle myosin subfragment-1 chemically crosslinked to cardiac or skeletal actin (Gallus gallus)
For each record, write down the corresponding IC50.
One number for each entry, in nM.

A selection of reference data follows.
COMPOUND: COC(=O)N1CCC[C@@H]1CNC(=O)c1ccc(-c2ccccc2C#N)nc1NCCc1cccc(F)c1
UNIT NAME: nM
IC50: 101
--
COMPOUND: N#Cc1ccccc1-c1ccc(C(=O)NC2CCC(C(N)=O)C2)c(NCCc2cccc(F)c2)n1 (centres unmarked)
UNIT NAME: nM
IC50: 11600
--
COMPOUND: N#Cc1ccccc1-c1ccc(C(=O)NCc2cccnc2)c(NCCc2cccs2)n1
UNIT NAME: nM
IC50: 29
--
COMPOUND: Cn1cc(-c2nc(NCCc3cccc(F)c3)c(C(=O)NCC(O)CO)cc2F)cn1 (centres unmarked)
UNIT NAME: nM
IC50: 307
--
COMPOUND: Cn1ncc(-c2ccc(C(=O)NCc3cccnc3)c(NCCc3cccc(F)c3)n2)c1C#N
UNIT NAME: nM
IC50: 20
--
COMPOUND: COC(=O)CCC(=O)N1CCC[C@@H]1CNC(=O)c1cc(F)c(-c2cnn(C)c2)nc1NCCc1cccc(F)c1
UNIT NAME: nM
IC50: 534

I need IC50 for every entry listed below, if you could help.
1. O=C(NCc1cccnc1)c1ccc(-c2ccc(O)cc2)nc1NCCc1ccccn1
2. CC(C)(C)OC(=O)N[C@@H](CCCN)C(=O)N1CC[C@@H]1CNC(=O)c1ccc(-c2ccccc2C#N)nc1NCCc1cccc(F)c1
3. N#Cc1ccccc1-c1ccc(C(=O)NCc2ccc(Cl)nc2)c(NCCc2cccc(F)c2)n1
4. Cc1csc(-c2ccc(C(=O)NCc3cccnc3)c(NCCc3cccc(F)c3)n2)c1
5. NCc1cccc(CNC(=O)c2ccc(-c3ccccc3)nc2NCCc2cccc(F)c2)n1

Result ::
1. 586
2. 1350
3. 1790
4. 148
5. 19

* * *

TARGET UNDER TEST: chicken gizzard smooth muscle myosin subfragment-1 chemically crosslinked to cardiac or skeletal actin (Gallus gallus)
For each record, write down the corresponding pIC50.
One number for each entry, as −log10 of the molar value.

A selection of reference data follows.
CHEMICAL STRUCTURE: C[C@@H](N)CNC(=O)c1ccc(-c2ccccc2C#N)nc1NCCc1cccc(F)c1
pIC50: 6.40
--
CHEMICAL STRUCTURE: C[C@H](CNC(=O)c1cc(F)c(-c2cnn(C)c2)nc1NCCc1cccc(F)c1)NC(=O)CN
pIC50: 7.12
--
CHEMICAL STRUCTURE: NCCCN1C(=O)CC[C@@H]1CNC(=O)c1cc(F)c(-c2cn[nH]c2)nc1NCCc1cccc(F)c1
pIC50: 7.18
--
CHEMICAL STRUCTURE: CC(=O)Nc1ccc(-c2ccc(C(=O)NCc3cccnc3)c(NCCc3ccccn3)n2)cc1
pIC50: 5.91
--
CHEMICAL STRUCTURE: N#Cc1ccccc1-c1ccc(C(=O)NC[C@@H]2CN(CCCN)CC(=O)N2)c(NCCc2cccc(F)c2)n1
pIC50: 5.34
--
CHEMICAL STRUCTURE: NCc1ncccc1CNC(=O)c1cc(F)c(-c2cc[nH]n2)nc1NCCc1cccc(F)c1
pIC50: 7.85
--
CHEMICAL STRUCTURE: N#Cc1ccccc1-c1nc(NCCc2cccc(F)c2)c(C(=O)NC[C@H]2CCCN2C(=O)CN)cc1F
pIC50: 7.40
--
CHEMICAL STRUCTURE: N#Cc1ccccc1-c1ccc(C(=O)NCc2ccc(CN)cc2)c(NCCc2cccc(F)c2)n1
pIC50: 6.56
--
CHEMICAL STRUCTURE: Cn1cc(-c2nc(NCCc3cccc(F)c3)c(C(=O)NC[C@H]3CCCN3C(=O)CNC(=O)OC(C)(C)C)cc2F)cn1
pIC50: 6.20
--
CHEMICAL STRUCTURE: N#Cc1ccccc1-c1ccc(C(=O)NCc2ccc(C(F)(F)F)cn2)c(NCCc2cccc(F)c2)n1
pIC50: 5.82

I need pIC50 for every entry listed below, if you could help.
1. N#Cc1ccccc1-c1ccc(C(=O)NC[C@H]2CN(CCCN)CC(=O)N2)c(NCCc2cccc(F)c2)n1
2. O=C(NC[C@@H]1CCCO1)c1ccc(-c2ccccc2)nc1NCCc1ccccn1

Result ::
1. 5.55
2. 5.17
